Test system: HEK293
Experiment: Cytotoxicity against human HEK293 cells assessed as inhibition of cell viability after 24 hrs by MTT assay
Format: cell-based
Details: HEK293, 24 h

# Compound, Unit symbol, Readout relation, IC50
measured = [
    ("COc1ccc(/C=C/c2c(-c3ccccc3)c(=O)oc3cc(O)ccc23)cc1", "µg/mL", ">", 250),
    ("COc1ccc2c(/C=C/c3ccc(OCCN4CCCCC4)cc3)c(-c3ccccc3)c(=O)oc2c1", "µg/mL", "=", 5),
    ("COc1ccc2c(/C=C/c3ccc(OC(C)CN(C)C)cc3)c(-c3ccccc3)c(=O)oc2c1 (stereo not given)", "µg/mL", "=", 5),
    ("COc1ccc2c(/C=C/c3ccc(O)cc3)c(-c3ccccc3)c(=O)oc2c1", "µg/mL", ">", 250),
    ("COc1ccc(C(=O)/C(=C/c2ccc(O)cc2)c2ccccc2)cc1", "µg/mL", "=", 50),
]
